Data credit: patent US20030148956A1

Let's look at some binders and their measured CRF2R Emax %.
# tgt: T1, corticotropin releasing factor 2 receptor
# T1 sequence (Q13324 whole entry, species assumed, looked up): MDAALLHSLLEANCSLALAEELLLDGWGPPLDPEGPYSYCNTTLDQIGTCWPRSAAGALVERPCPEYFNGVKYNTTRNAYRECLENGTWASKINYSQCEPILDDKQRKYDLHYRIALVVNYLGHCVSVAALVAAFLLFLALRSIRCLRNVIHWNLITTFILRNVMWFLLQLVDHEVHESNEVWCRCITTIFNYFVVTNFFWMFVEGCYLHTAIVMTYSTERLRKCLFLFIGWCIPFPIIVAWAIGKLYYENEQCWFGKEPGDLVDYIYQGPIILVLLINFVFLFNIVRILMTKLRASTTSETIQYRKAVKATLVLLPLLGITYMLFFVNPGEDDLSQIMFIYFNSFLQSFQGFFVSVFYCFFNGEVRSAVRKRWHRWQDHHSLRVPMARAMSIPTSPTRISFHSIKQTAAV
# experiment.summary: cell-based or functional assay
Ends that are not written are not given here.
Write the answer as a number in %, unit excluded.

{"binder": "ZGPPISIDLPQILLRKVIEIEKQEKEKQQAANNRLLLDTI (C-terminal amide) [SEQ ID NO 293]", "test.value": 87}
{"binder": "ZGPPISIDLPFQLLRKVIEIEKQEKEKQQAANNARLLDTI (C-terminal amide) [SEQ ID NO 278]", "test.value": 100}
{"binder": "NDDPPISIDLPTYLLRNMIEMARIENEREQAGLNAKYLAEV-NH2 [SEQ ID NO 266]", "test.value": 19.4}

Query binder follows.
Exercise: For ZGPPISIDLPVALLRKMIEIEKQEKEKQQAANNRLLLDTI (not fully specified; C-terminal amide) [SEQ ID NO 305] , what is its reported CRF2R Emax %?
Key: 95.2
